Values from PubChem BioAssay

# test.description: liver-stage malaria parasite load reduction – cell-based, known kinase inhibitor set, luminescence, hepatoma host viability (AID 624392);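 note: infected cells incubated roughly two days before readout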
# test.context: Plasmodium liver stage in hepatoma cells, luciferase luminescence, concentration not given here; hits give low values
endpoint.name: parasite % of control (%)
Could you give me the number in %? Just the number is fine.

# compound, unit.descriptor, reported.measurement
records = [
    ("Cc1ccc(C(=O)Nc2cccc(C(F)(F)F)c2)cc1NC(=O)c1nccnc1N", "%", 83.1),
]

Which parasite % of control value belongs to Nc1nonc1-c1nc2cnccc2n1C1CC1 ?
247

Record request: parasite % of control value, item CN(C)CC=CC(=O)Nc1cccc(-c2c[nH]c3ncnc(Oc4ccc(NC(=O)CC(=O)Nc5ccc(F)cc5)cc4F)c23)c1
155

Dear colleague, I am looking for the recorded parasite % of control of the following compound: CCN1CCN(Cc2ccc(NC(=O)c3ccc(C)c(NC(=O)c4cccc5[nH]ccc45)c3)cc2C(F)(F)F)CC1
99.7

Given O=C(Nc1ccc(-c2csc(Nc3ccccc3)n2)cc1)c1ccccc1 , state its recorded parasite % of control.
204

# query: parasite % of control of entry CCN1C(=O)CC(C(C)C)N(C2CCCC2)c2nc(Nc3ccc(C(=O)NC4CCN(C)CC4)cc3OC)ncc21 (centres undefined)
87.6

Item C=CC(=O)Nc1ccc(Oc2nc(Nc3ccc(N4CCN(C)CC4)cc3OC)ncc2Cl)cc1 has what recorded parasite % of control?
126

Need parasite % of control of O=C(Nc1cccc(-c2csc(Nc3ccccc3)n2)c1)c1cc([N+](=O)[O-])cc(C(F)(F)F)c1 , thanks.
168

May I ask what parasite % of control has been recorded for CCN1C(=O)CC(c2ccccc2)N(C2CCCC2)c2nc(Nc3ccc(C(=O)NC4CCN(C)CC4)cc3OC)ncc21 (centres undefined) ?
83.8
